Test: Equilibrium solubility by HPLC, Form C, ambient temperature
Type: physicochemical
Conditions: Oleic Acid, oil or lipid, thermodynamic from solid, Oleic Acid; read-out: Solubility by HPLC
property: solubility (µg/mL)
Give a bare numeral; the unit µg/mL is implied.

Lab note: `CC(=O)N1CCc2c(C(=O)N3CCC(c4ccc(F)c(F)c4C(F)(F)F)CC3)n[nH]c2C1` gave solubility of 390

###

Assay: Equilibrium solubility by HPLC, Form C, ambient temperature
Type: physicochemical
Conditions: Kolliphor HS-15, 35 °C, organic solvent or mixture, thermodynamic from solid, Kolliphor HS-15; Stirred at 35° C.; read-out: Solubility by HPLC
property: solubility (µg/mL)
Use µg/mL as the unit, but write only the number.

The measured solubility associated with CC(=O)N1CCc2c(C(=O)N3CCC(c4ccc(F)c(F)c4C(F)(F)F)CC3)n[nH]c2C1 [Compound 1] reads 2800
